Target: Estrogen receptor (Homo sapiens, UniProt Q92731+P03372)
Conditions: mcf7
Description: Inhibition of estrogen receptor in MCF7 cells
Field: label. Allowed values: true (1) (IC50 < 400 nM) or false (0) (IC50 >= 400 nM).

- compound: "Oc1ccc2c(c1)O[C@@H](c1ccc(OCCN3CCCCC3)cc1)C1=C2COc2cc(O)ccc21"
  system.name: "Estrogen receptor (Homo sapiens, UniProt Q92731+P03372)"
  answer.label: "false (0)"
- compound: "Oc1ccc2c(c1)OC(c1ccc(OCCN3CCCCC3)cc1)C1=C2COc2cc(O)ccc21 (stereo unspecified)"
  system.name: "Estrogen receptor (Homo sapiens, UniProt Q92731+P03372)"
  answer.label: "true (1)"
- compound: "CC(C)(C)C(=O)Oc1ccc2c(c1)O[C@@H](c1ccc(OCCN3CCCCC3)cc1)C1=C2COc2cc(OC(=O)C(C)(C)C)ccc21"
  system.name: "Estrogen receptor (Homo sapiens, UniProt Q92731+P03372)"
  answer.label: "false (0)"
- compound: "CN(C)CCOc1ccc(C2Oc3cc(O)ccc3C3=C2c2ccc(O)cc2OC3)cc1 (stereo unspecified)"
  system.name: "Estrogen receptor (Homo sapiens, UniProt Q92731+P03372)"
  answer.label: "true (1)"
- compound: "Oc1ccc2c(c1)O[C@H](c1ccc(OCCN3CCCCC3)cc1)C1=C2COc2cc(O)ccc21"
  system.name: "Estrogen receptor (Homo sapiens, UniProt Q92731+P03372)"
  answer.label: "false (0)"
- compound: "CC(C)(C)C(=O)Oc1ccc2c(c1)O[C@H](c1ccc(OCCN3CCCCC3)cc1)C1=C2COc2cc(OC(=O)C(C)(C)C)ccc21"
  system.name: "Estrogen receptor (Homo sapiens, UniProt Q92731+P03372)"
  answer.label: "false (0)"

====

Target: Estrogen receptor (Homo sapiens)
readout.label: IC50

- item.smiles: "CC(C)(C)C(=O)Oc1ccc2c(c1)O[C@H](c1ccc(OCCN3CCCCC3)cc1)C1=C2COc2cc(OC(=O)C(C)(C)C)ccc21"
  readout.label: "IC50"
  assay.value: "> 10000 nM"
- item.smiles: "Oc1ccc2c(c1)O[C@H](c1ccc(OCCN3CCCCC3)cc1)C1=C2COc2cc(O)ccc21"
  readout.label: "IC50"
  assay.value: "51 nM"
- item.smiles: "Oc1ccc2c(c1)O[C@@H](c1ccc(OCCN3CCCCC3)cc1)C1=C2COc2cc(O)ccc21"
  readout.label: "IC50"
  assay.value: "0.61 nM"
- item.smiles: "CC(C)(C)C(=O)Oc1ccc2c(c1)O[C@@H](c1ccc(OCCN3CCCCC3)cc1)C1=C2COc2cc(OC(=O)C(C)(C)C)ccc21"
  readout.label: "IC50"
  assay.value: "> 1000 nM"

====

Target: Estrogen receptor (Homo sapiens, UniProt Q92731+P03372)
Conditions: ishikawa
Description: Inhibition of estrogen receptor in Ishikawa cells
readout.label: IC50 (nM)

- molecule: "Oc1ccc2c(c1)O[C@H](c1ccc(OCCN3CCCCC3)cc1)C1=C2COc2cc(O)ccc21"
  system.name: "Estrogen receptor (Homo sapiens, UniProt Q92731+P03372)"
  assay.value: 43.3
- molecule: "CN(C)c1ccc(C2Oc3cc(O)ccc3C3=C2c2ccc(O)cc2OC3)cc1 (configuration not stated)"
  system.name: "Estrogen receptor (Homo sapiens, UniProt Q92731+P03372)"
  assay.value: 3800
- molecule: "CN(C)CCOc1ccc(C2Oc3cc(O)ccc3C3=C2c2ccc(O)cc2OC3)cc1 (configuration not stated)"
  system.name: "Estrogen receptor (Homo sapiens, UniProt Q92731+P03372)"
  assay.value: 180
- molecule: "Oc1ccc2c(c1)O[C@@H](c1ccc(OCCN3CCCCC3)cc1)C1=C2COc2cc(O)ccc21"
  system.name: "Estrogen receptor (Homo sapiens, UniProt Q92731+P03372)"
  assay.value: 17.1
- molecule: "CC(C)(C)C(=O)Oc1ccc2c(c1)O[C@H](c1ccc(OCCN3CCCCC3)cc1)C1=C2COc2cc(OC(=O)C(C)(C)C)ccc21"
  system.name: "Estrogen receptor (Homo sapiens, UniProt Q92731+P03372)"
  assay.value: 175
- molecule: "Oc1ccc2c(c1)OC(c1ccc(OCCN3CCCCC3)cc1)C1=C2COc2cc(O)ccc21 (configuration not stated)"
  system.name: "Estrogen receptor (Homo sapiens, UniProt Q92731+P03372)"
  assay.value: 12
- molecule: "CC(C)(C)C(=O)Oc1ccc2c(c1)O[C@@H](c1ccc(OCCN3CCCCC3)cc1)C1=C2COc2cc(OC(=O)C(C)(C)C)ccc21"
  system.name: "Estrogen receptor (Homo sapiens, UniProt Q92731+P03372)"
  assay.value: 99
